Kindly supply the reported viability, T/C values for the records listed here.
- Tested on: 323965-272-R-J2-PDC complex spheroid viability;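 note: spheroids exposed to agents for seven days before readout; percent of DMSO vehicle control wells so 100% = untreated growth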
- MEASUREMENT_PROTOCOL: Anticancer human tumor 323965-272-R-J2-PDC patient-derived pancreatic carcinoma cell line growth inhibition [CLK]
- TEST_SETTINGS: second compound 0.316 µM; first compound 10 µM; hits give low values
Field: numeric (%). Do not append units.

**Q:** Missing value: viability, T/C, 323965-272-R-J2-PDC complex spheroid viability, entry CCCS(=O)(=O)Nc1ccc(F)c(C(=O)c2c[nH]c3ncc(-c4ccc(Cl)cc4)cc23)c1F + CN1CCN(c2cc(C(=O)Nc3cc4cc(-c5cnn(C)c5)ccc4cn3)ccn2)CC1 . Fill in?
**A:** 35

**Q:** Notebook: pull reported viability, T/C for 323965-272-R-J2-PDC complex spheroid viability, entry CC(CO)NC(=O)c1cc(-c2ccc(Cl)cc2)nn(-c2cnn(C)c2)c1=O (stereo unspecified) + CNC(=O)c1ccc(Nc2nc(OC3CCCC3)c3c(-c4ccc5nc(C)oc5c4)c[nH]c3n2)c(OC)c1
**A:** 53.4

**Q:** Request body: readout viability, T/C, system 323965-272-R-J2-PDC complex spheroid viability, query O=C(c1cc(Cc2n[nH]c(=O)c3ccccc23)ccc1F)N1CCN(C(=O)C2CC2)CC1 + CN1CCN(c2cc(C(=O)Nc3cc4cc(-c5cnn(C)c5)ccc4cn3)ccn2)CC1 . Return the value.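 Note: spheroids exposed to agents for seven days before readout; percent of DMSO vehicle control wells so 100% = untreated growth.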
**A:** 26.9

**Q:** // lookup viability, T/C | system=323965-272-R-J2-PDC complex spheroid viability | key= C=CC(=O)N1CCN(c2nc(=O)n(-c3c(C)ccnc3C(C)C)c3nc(-c4c(O)cccc4F)c(F)cc23)C(C)C1 (stereo unspecified) + CN1CCN(c2cc(C(=O)Nc3cc4cc(-c5cnn(C)c5)ccc4cn3)ccn2)CC1;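 note: spheroids exposed to agents for seven days before readout; percent of DMSO vehicle control wells so 100% = untreated growth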
**A:** 22.6

**Q:** Please tell me: viability, T/C of COc1cccc2c1C(=O)c1c(O)c3c(c(O)c1C2=O)CC(O)(C(=O)CO)CC3OC1CC(N)C(O)C(C)O1 (stereo unspecified) + CN1CCN(c2cc(C(=O)Nc3cc4cc(-c5cnn(C)c5)ccc4cn3)ccn2)CC1 , system 323965-272-R-J2-PDC complex spheroid viability?;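 note: spheroids exposed to agents for seven days before readout; percent of DMSO vehicle control wells so 100% = untreated growth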
**A:** 0.68

**Q:** Hi! What's the reported viability, T/C for COC1C=CCC(C)C(C)S(=O)(=O)NC(=O)c2ccc3c(c2)N(CC2CCC21)CC1(CCCc2cc(Cl)ccc21)CO3 (stereo unspecified) + CNC(=O)c1ccc(Nc2nc(OC3CCCC3)c3c(-c4ccc5nc(C)oc5c4)c[nH]c3n2)c(OC)c1 on 323965-272-R-J2-PDC complex spheroid viability?
**A:** 21.4

**Q:** Lab note: need viability, T/C for Nc1ccn(C2OC(CO)C(O)C2(F)F)c(=O)n1 (stereo unspecified) + CNC(=O)c1ccc(Nc2nc(OC3CCCC3)c3c(-c4ccc5nc(C)oc5c4)c[nH]c3n2)c(OC)c1 on 323965-272-R-J2-PDC complex spheroid viability, anyone have it?
**A:** 25.2

**Q:** What is its viability, T/C for 323965-272-R-J2-PDC complex spheroid viability? Entry: CC(CO)NC(=O)c1cc(-c2ccc(Cl)cc2)nn(-c2cnn(C)c2)c1=O (stereo unspecified) + CN1CCN(c2cc(C(=O)Nc3cc4cc(-c5cnn(C)c5)ccc4cn3)ccn2)CC1
**A:** 32.8

**Q:** So what viability, T/C did CC(Nc1ccc2c(c1)OCCn1cc(N3C(=O)OCC3C(F)F)nc1-2)C(N)=O (stereo unspecified) + CNC(=O)c1ccc(Nc2nc(OC3CCCC3)c3c(-c4ccc5nc(C)oc5c4)c[nH]c3n2)c(OC)c1 get with 323965-272-R-J2-PDC complex spheroid viability?
**A:** 39.2

**Q:** Recall the recorded viability, T/C for C#Cc1c(F)ccc2cc(O)cc(-c3ncc4c(N5CC6CCC(C5)N6)nc(OCC56CCCN5CC(F)C6)nc4c3F)c12 (stereo unspecified) + CN1CCN(c2cc(C(=O)Nc3cc4cc(-c5cnn(C)c5)ccc4cn3)ccn2)CC1 with 323965-272-R-J2-PDC complex spheroid viability and state it.
**A:** 15.1

**Q:** 323965-272-R-J2-PDC complex spheroid viability / viability, T/C / CCCS(=O)(=O)Nc1ccc(F)c(C(=O)c2c[nH]c3ncc(-c4ccc(Cl)cc4)cc23)c1F + CNC(=O)c1ccc(Nc2nc(OC3CCCC3)c3c(-c4ccc5nc(C)oc5c4)c[nH]c3n2)c(OC)c1 : value?
**A:** 72
